Give measured growth for each item. Keep answers brief.
Tested on: NCI/ADR-RES ovarian
Test: NCI-60 one-dose screen, 48 h (100 = growth as untreated, 0 = no growth, -100 = all killed)
Conditions: 10 µM unless noted
About 83,000 compounds went through this panel and 20% of them were active in at least one assay; those are over-represented in the sample as a whole. Activity calls are given as the source filed them. The calls were made as follows: active = growth percent below 10; inactive = the rest.

// worked examples, growth included
compound=Cn1ccnc1C(=O)C(=O)Nc1ccc(CC(=O)Nc2ccccc2)cc1 measured="103% (inactive)"
compound="CC(=O)N1N=C(c2ccc(Nc3nc(Nc4ccc(Cl)cc4)nc(Nc4ccc(Cl)cc4)n3)cc2)CC1c1ccco1 (configuration not stated)" measured="93.5% (inactive)"
compound=CS(=O)(=O)Nc1cc(-c2ccc3ncnc(Nc4ccc5c(cnn5Cc5ccccn5)c4)c3c2)cnc1Cl measured="93.3% (inactive)"
compound=CCOP(=O)(OCC)c1nc(-c2ccccc2)oc1NCc1cccnc1 measured="105% (inactive)"
compound=CC(=O)c1cc(O)c2ccccc2c1O measured="87% (inactive)"

Parameters: items (list). Returns: growth for each item.
1. CC(=O)N(N=Nc1ccccc1)c1cccc2ccccc12
2. C=C(C)[C@@H]1CC[C@]2(C)[C@H](CC=C3[C@@H]4[C@H](C)[C@@H](C)CC[C@]4(CO)CC[C@]32C)[C@@]1(C)CCCN

1: 78.5% (inactive); 2: 14.1% (inactive)

###

Tested on: M14 melanoma
Experiment: NCI-60 one-dose screen, 48 h
Conditions: 10 µM unless noted
About 83,000 compounds went through this panel and 20% of them were active in at least one assay; those are over-represented in the sample as a whole. Active and inactive are the calls of the source. Rule for the calls: active = growth percent below 10; inactive = the rest.
Lab note: assign the record to one of active, inactive

compound=Cc1ccccc1NC(=O)c1sc2nc(C)c(C(=O)/C=C/c3ccccc3)cc2c1N target_entity="M14 melanoma" class=active
compound=c1ccc(CNc2c3ccccc3nc3ccccc23)cc1 target_entity="M14 melanoma" class=inactive
compound=C#Cc1cccc(Nc2ncnc3ccc(-c4cncc(NS(C)(=O)=O)c4)cc23)c1 target_entity="M14 melanoma" class=inactive
compound=CCOC(=O)c1c(C)c2c(n1C)CSc1cc(C(=O)c3ccccc3)c(=O)[nH]c1-2 target_entity="M14 melanoma" class=inactive
compound=OCc1cccc(-c2ccc3ncc(-c4nc(NC5CC5)ncc4F)n3c2)c1 target_entity="M14 melanoma" class=active

Just curious, what result did "CC1=Nc2cnc(Nc3ccc(OCCN4CCCCC4)cc3)nc2Nc2ccccc21" get here? inactive

Just curious, what result did "Cn1c(-c2ccc(Br)cc2)c(O)c(=O)c2c(F)cccc21" get here? inactive

Just curious, what result did "Cc1cc2c(O)c(-c3cccc(Cl)c3)c3sc(=O)oc3c2cc1C" get here? inactive

Just curious, what result did O=[N+]([O-])C1C(c2ccccc2)C12c1ccccc1-c1ccccc12 (centres undefined) get here? active

###

System: M14 melanoma
Test: NCI-60 one-dose screen, 48 h (100 = growth as untreated, 0 = no growth, -100 = all killed)
Conditions: 10 µM unless noted
Compounds without any hit were thinned out: in the full panel of roughly 83,000, 20% have a hit. Active and inactive are the calls of the source. Rule for the calls: active = growth percent below 10; inactive = the rest.
value-kind: growth

// worked examples, growth included
compound=C1=C(N2CCCC2)CCC1 measured="96.2% (inactive)"
compound=Clc1ccc(Nc2nnc(COc3ccccc3)c3ccccc23)cc1 measured="-9.99% (active)"

Now let's try a different one.
For this compound ( CN(C)CCCC1(c2ccc(F)cc2)OCc2cc(-c3cncc4ccccc34)ccc21 (stereo not drawn) ), measured growth is -56% (active)
